- tested target: human recombinant PDE5 (Homo sapiens, UniProt O76074)
- procedure details: cGMP-PDE inhibition, one-step assay with human recombinant PDE5
- particulars: 0.15 μM 8-[H3]-cGMP, 30 min
Mark Met only when IC50 stays strictly below 40 nM. Values equal to the cut-off are Not met.

Answered examples (3):
Cc1ccc(C2c3[nH]c4ccccc4c3CCN2C(=O)c2cc3ccccc3s2)cc1 (stereo not shown) [Example 83]    Not met
c1ccc(-c2ccnc(N3CCc4c([nH]c5ccccc45)C3c3ccc4c(c3)CCO4)n2)cc1 (stereo not shown) [Example 58]    Met
CN(C)Cc1ccc(C(=O)N2CCc3c([nH]c4ccccc34)C2c2ccc3c(c2)OCO3)s1 (stereo not shown) [Example 42]    Not met

[ask] Could you please tell me whether IC50 recorded for c1ccc2c3c([nH]c2c1)C(c1ccc2c(c1)CCO2)N(c1nccc(-n2ccnc2)n1)CC3 (stereo not shown) [Example 60] is less than 40 nM?
[reply] Not met

[ask] // same read-out, input: O=C(/C=C/c1ccc(CCC(=O)N2CCc3c([nH]c4ccccc34)C2c2ccc3c(c2)OCO3)cc1)N1CCc2c([nH]c3ccccc23)C1c1ccc2c(c1)OCO2 (stereo not shown) [Example 13b]
[reply] Met

[ask] // same read-out, input: O=C(CCc1ccccc1)N1CCc2c([nH]c3ccccc23)C1c1ccc2c(c1)OCO2 (stereo not shown) [Example 11]
[reply] Not met

[ask] // same read-out, input: c1coc(-c2nccc(N3CCc4c([nH]c5ccccc45)C3c3ccc4c(c3)CCO4)n2)c1 (stereo not shown) [Example 67]
[reply] Not met

====

- tested target: human recombinant PDE5 (Homo sapiens)
- procedure details: cGMP-PDE inhibition, one-step assay with human recombinant PDE5
- particulars: 0.15 μM 8-[H3]-cGMP, 30 min
experimental readout: IC50 (nM)
Respond numerically; units are nM and should not be typed.

# example entries with known answers
COc1ccc(C2c3[nH]c4ccccc4c3CCN2C(=O)c2cc3ccccc3s2)cc1Cl (stereo not shown)    420
c1cncc(-c2nccc(N3CCc4c([nH]c5ccccc45)C3c3ccc4c(c3)CCO4)n2)c1 (stereo not shown) [Example 69]    9
CNc1ccc(C(=O)N2CCc3c([nH]c4ccccc34)C2c2ccc3c(c2)OCO3)cc1 (stereo not shown)    200

[ask] Param item = CN(C)CCOc1ccc(-c2ccnc(N3CCc4c([nH]c5ccccc45)C3c3ccc4c(c3)CCO4)n2)cc1 (stereo not shown) ; retrieve measured IC50.
[reply] 20

[ask] // same read-out, input: O=C(CN1CCCCC1)Nc1ccc2sc(C(=O)N3CCc4c([nH]c5ccccc45)C3c3ccc4c(c3)OCO4)cc2c1 (stereo not shown)
[reply] 300

[ask] // same read-out, input: CN1CCN(CC(=O)Nc2ccc3sc(C(=O)N4CCc5c([nH]c6ccccc56)C4c4ccc5c(c4)OCO5)cc3c2)CC1 (stereo not shown)
[reply] 120

[ask] // same read-out, input: c1ccc(-c2cc(N3CCc4c([nH]c5ccccc45)C3c3ccc4c(c3)CCO4)ncn2)cc1 (stereo not shown)
[reply] 7

[ask] // same read-out, input: c1cncc(-c2cc(N3CCc4c([nH]c5ccccc45)C3c3ccc4c(c3)CCO4)ncn2)c1 (stereo not shown)
[reply] 4

[ask] // same read-out, input: c1ccc(-c2nccc(N3CCc4c([nH]c5ccccc45)C3c3ccc4c(c3)OCO4)n2)cc1 (stereo not shown)
[reply] 20

[ask] // same read-out, input: Nc1ccccc1CCC(=O)N1CCc2c([nH]c3ccccc23)C1c1ccc2c(c1)OCO2 (stereo not shown)
[reply] 440

[ask] // same read-out, input: CC(=O)c1ccc(C(=O)N2CCc3c([nH]c4ccccc34)C2c2ccc3c(c2)OCO3)s1 (stereo not shown)
[reply] 110

[ask] // same read-out, input: O=C(c1ccc([N+](=O)[O-])s1)N1CCc2c([nH]c3ccccc23)C1c1ccc2c(c1)OCO2 (stereo not shown)
[reply] 460

[ask] // same read-out, input: CC(=O)Nc1ccc2sc(C(=O)N3CCc4c([nH]c5ccccc45)C3c3ccc4c(c3)OCO4)cc2c1 (stereo not shown)
[reply] 30

[ask] // same read-out, input: O=C(CN1CCOCC1)Nc1ccc2sc(C(=O)N3CCc4c([nH]c5ccccc45)C3c3ccc4c(c3)OCO4)cc2c1 (stereo not shown)
[reply] 40

[ask] // same read-out, input: c1ccc(-c2ccnc(N3CCc4c([nH]c5ccccc45)C3c3ccccc3)n2)cc1 (stereo not shown)
[reply] 290

[ask] // same read-out, input: O=C(c1cc2ccccc2s1)N1CCc2c([nH]c3ccccc23)C1c1ccccc1 (stereo not shown)
[reply] 900

[ask] // same read-out, input: O=C(c1ccc(-c2ccccc2)s1)N1CCc2c([nH]c3ccccc23)C1c1ccc2c(c1)OCO2 (stereo not shown)
[reply] 250

[ask] // same read-out, input: Nc1ccc(C(=O)N2CCc3c([nH]c4ccccc34)C2c2ccc3c(c2)OCO3)s1 (stereo not shown)
[reply] 490

[ask] // same read-out, input: `O=C(c1ccc2ccccc2c1)N1CCc2c([nH]c3ccccc23)[C@H]1c1ccc2c(c1)OCO2`
[reply] 710

[ask] // same read-out, input: Nc1ccc2sc(C(=O)N3CCc4c([nH]c5ccccc45)C3c3ccc4c(c3)OCO4)cc2c1 (stereo not shown)
[reply] 80
